- Tested on: SK-MEL-5 melanoma
- EXPERIMENT SUMMARY: NCI tumour cell line growth inhibition, 48 h
MEASURED ENDPOINT: TGI (µM)
Please respond with the number in µM and leave the unit unwritten.

{"CHEMICAL SMILES": "COc1ccc2c(c1)CCCc1c-2nc2ccccc2c1N", "QUANTITATIVE READOUT": 15.1}
{"CHEMICAL SMILES": "Nc1cc(Cl)ccc1SSc1ccc(Cl)cc1N", "QUANTITATIVE READOUT": 27}
{"CHEMICAL SMILES": "O=C([CH-]C(=O)c1ccccc1)c1ccccc1.O=C([CH-]C(=O)c1ccccc1)c1ccccc1.O=C([CH-]C(=O)c1ccccc1)c1ccccc1.[Cl-].[Hf+4]", "QUANTITATIVE READOUT": 31.5}

## Task I am curious: what TGI value has been reported for CC(C)C(=O)c1c(C(F)(F)F)n([O-])c2ccccc2[n+]1=O ?
## Result 3.03

## Task Again, but for C(#CC1(Nc2ccccc2)CCN(Cc2ccccc2)CC1)C1(Nc2ccccc2)CCN(Cc2ccccc2)CC1
## Result 18.3

----------
Each entry below carries its recorded TGI.
- System: CAKI-1 renal
- EXPERIMENT SUMMARY: NCI tumour cell line growth inhibition, 48 h

{"COMPOUND": "O=[N+]([O-])C=C1c2ccccc2-c2ccccc21", "RESULT": "24.5 µM"}
{"COMPOUND": "Cc1c2c(nn1-c1ccc(S(=O)(=O)NC(=S)NC(=O)c3ccccc3)cc1)-c1ccccc1CC2", "RESULT": "51.9 µM"}
{"COMPOUND": "O=[N+]([O-])/C(Cl)=C/C(=C1/Nc2ccccc2O1)[N+](=O)[O-]", "RESULT": "45.9 µM"}

## Task Provide the documented TGI with CAKI-1 renal as the system for CC(C)c1ccc(/C=C/c2cc(C(=O)NNC(=O)NC3CCCCC3)nc(=S)[nH]2)cc1
## Result > 100 µM

## Task Again, but for CC(=O)Nc1cc2nc3n(c2cc1C)CCC3OC(C)=O (stereo not given)
## Result > 100 µM

## Task Again, but for C=C1c2nc3ccccc3n2C=C(c2ccc(Cl)cc2)N1c1ccc(OCCN2CCCCC2)cc1
## Result > 45 µM

----------
- Tested on: HT29 colon
- EXPERIMENT SUMMARY: NCI tumour cell line growth inhibition, 48 h
MEASURED ENDPOINT: TGI

Examples with their reported TGI follow.
{"CHEMICAL SMILES": "Nc1nn(C(=O)Nc2c(F)cccc2F)c2ccccc12", "TARGET ENTITY": "HT29 colon", "RESULT": "> 100 µM"}
{"CHEMICAL SMILES": "O=C(O)CN(c1ccc(F)cc1)S(=O)(=O)c1ccccc1", "TARGET ENTITY": "HT29 colon", "RESULT": "> 100 µM"}
{"CHEMICAL SMILES": "COC(=O)[C@@H](C)C[C@H](Cc1ccccc1)NC(=O)c1csc([C@@H](C[C@H](C(C)C)N(C)C(=O)[C@@H](NC(=O)[C@H]2CCCN2C)C2CC2)OC(C)=O)n1", "TARGET ENTITY": "HT29 colon", "RESULT": "> 25 µM"}

## Task Provide the documented TGI with HT29 colon as the system for O=C(NCCCN(CCCCN(CCCNC(=O)c1cc(S(=O)(=O)O)cc(O)c1O)C(=O)c1cc(S(=O)(=O)O)cc(O)c1O)C(=O)c1cc(S(=O)(=O)O)cc(O)c1O)c1cc(S(=O)(=O)O)cc(O)c1O
## Result > 100 µM
